Values from patent US8470889B2

System: 22Rv1 cells
Conditions: human, 72 h
pIC50: −log10 of the molar value.
METRIC: pIC50

A: CC1=CCCC(C)(C)C1/C=C/C(=O)/C=C/c1cccc(C(F)(F)F)c1 (centres unmarked)
B: CC1(C)CCC(O)C=C1/C=C/C(=O)/C=C/c1cnc2ccccc2c1 (centres unmarked)
IN: Lab note: record which item had the higher pIC50, A or B . Lab log: write the label of the selected item as the result.
OUT: B

* * *

System: PC-3 cells
Experiment: MTT cell growth inhibition, PC-3
Conditions: read-out: Cellular IC50 (μM) PC-3, Table 9
METRIC: IC50 (µM)

Reference set (5 entries):
>>> reading("CC1(C)CCC(O)C=C1/C=C/C(=O)/C=C/c1c[nH]c2ccccc12 (centres unmarked)")
15.2
>>> reading("CC1(C)CCC(O)C=C1/C=C/C(=O)/C=C/c1ccnc2ccccc12 (centres unmarked)")
2.2
>>> reading("CC1(C)CCC(O)C=C1/C=C/C(=O)/C=C/c1ccc2c(c1)OCCO2 (centres unmarked)")
23.2
>>> reading("CC1(C)CCC(O)C=C1/C=C/C(=O)/C=C/c1c[nH]c2ccc(Br)cc12 (centres unmarked)")
5.8
>>> reading("CC1(C)CCC(O)C=C1/C=C/C(=O)/C=C/c1ccc2c(c1)OC(F)(F)O2 (centres unmarked)")
3.2

I: Cc1cccc2c(/C=C/C(=O)/C=C/C3=CC(O)CCC3(C)C)c[nH]c12 (centres unmarked)
II: Cc1ccc2[nH]cc(/C=C/C(=O)/C=C/C3=CC(O)CCC3(C)C)c2c1 (centres unmarked)
IN: Lab note: record which item had the higher IC50, I or II . Lab log: write the label of the selected item as the result.
OUT: II
(II: 10.6 µM, I: 6.4 µM)

* * *

Tested on: C4-2B cells
Assay: MTT cell growth inhibition, C4-2B;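 further: cells treated with a dilution series for 72 h, then MTT added and absorbance read at 600 nm, IC50 fitted from dose-response curves by nonlinear regression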
Conditions: read-out: Cytotoxicity in prostate cancer cell lines IC50 (μM), C4-2B, Part D table, 72 hours, I.A. = Inactive
METRIC: IC50

IN: Jot down IC50 (C4-2B cells) of CC(O)(CS(=O)(=O)c1ccc(F)cc1)C(=O)Nc1ccc(C#N)c(C(F)(F)F)c1 (stereo not shown) [Bic, bicalutamide, reference compound] .
OUT: > 25 µM

* * *

System: LNCaP cells;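 further: MTT formazan absorbance at 600 nm read after 72 h of compound exposure, IC50 fitted by nonlinear regression of dose-response curves, samples run in triplicate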
Settings: human, 72 h
METRIC: IC50 (µM)

Reference set (4 entries):
>>> reading("CC1=CCCC(C)(C)C1/C=C/C(=O)/C=C/c1cccc(C(F)(F)F)c1 (stereo not drawn)")
1
>>> reading("CC(=O)N1N=C(/C=C/C2C(C)=CCCC2(C)C)CC1c1ccccc1C(F)(F)F (stereo not drawn)")
18.2
>>> reading("CC1(C)CCC(O)C=C1/C=C/C(=O)/C=C/c1cnc2ccccc2c1 (stereo not drawn)")
0.63
>>> reading("CC(=O)N1N=C(/C=C/C2C(C)=CCCC2(C)C)CC1c1cccc(C(F)(F)F)c1 (stereo not drawn)")
16.8

1: COc1ccc(C2CC(/C=C/C3=C(C)C(O)CCC3(C)C)=NN2C(C)=O)cc1OC (stereo not drawn)
2: CC(=O)N1N=C(/C=C/C2C(C)=CCCC2(C)C)CC1c1ccc(C(F)(F)F)cc1 (stereo not drawn)
3: CC(=O)N1N=C(/C=C/C2=C(C)C(O)CCC2(C)C)CC1c1cccc(C(F)(F)F)c1 (stereo not drawn)
4: CC1=CCCC(C)(C)C1/C=C/C1=NNC(c2cccc(C(F)(F)F)c2)C1 (stereo not drawn)
IN: Order the records so the highest IC50 appears first and the lowest last. Give me the labels in the order the question wants.
OUT: 3, 1, 2, 4
(3: 35.4 µM, 1: 24.7 µM, 2: 16.6 µM, 4: 10.9 µM)
